Documented pIC50 across a set of compounds
biological target: full-length beta-Catenin (Uniprot ID P35222) (Homo sapiens); construct: 10 nM full-length beta-Catenin (Uniprot ID P35222); experiment: Fluorescence polarization IC50 (beta-catenin / 5FAM-TCF4 10-53 competition); type: binding; conditions: read-out: beta-Catenin FP IC50
Sequence (P35222 whole entry): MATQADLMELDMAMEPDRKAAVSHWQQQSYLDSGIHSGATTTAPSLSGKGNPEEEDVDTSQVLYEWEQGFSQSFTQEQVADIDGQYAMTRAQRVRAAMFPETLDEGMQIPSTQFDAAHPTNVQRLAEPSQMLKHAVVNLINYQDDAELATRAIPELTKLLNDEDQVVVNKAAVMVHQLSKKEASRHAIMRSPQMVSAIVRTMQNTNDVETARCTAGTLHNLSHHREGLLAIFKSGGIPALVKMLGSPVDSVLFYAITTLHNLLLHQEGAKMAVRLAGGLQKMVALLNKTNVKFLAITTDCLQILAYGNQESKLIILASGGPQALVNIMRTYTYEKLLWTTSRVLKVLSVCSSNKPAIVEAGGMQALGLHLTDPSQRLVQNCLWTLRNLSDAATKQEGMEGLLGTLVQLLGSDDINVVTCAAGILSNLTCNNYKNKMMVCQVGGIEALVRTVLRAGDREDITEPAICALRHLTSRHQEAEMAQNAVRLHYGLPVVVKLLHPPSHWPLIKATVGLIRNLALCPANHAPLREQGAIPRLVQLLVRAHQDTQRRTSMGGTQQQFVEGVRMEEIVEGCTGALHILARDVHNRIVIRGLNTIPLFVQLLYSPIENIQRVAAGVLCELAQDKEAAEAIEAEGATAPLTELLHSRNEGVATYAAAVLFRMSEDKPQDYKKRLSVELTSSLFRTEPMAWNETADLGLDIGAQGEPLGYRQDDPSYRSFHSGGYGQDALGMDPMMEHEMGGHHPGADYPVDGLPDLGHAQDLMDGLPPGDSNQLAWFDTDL
pIC50: −log10 of the molar value.
Observed Property: pIC50

# Compound, Data Value
rows = [
    ("CC[C@H](C)[C@@H]1NC(=O)[C@H](C)NC(=O)[C@H](CN(CC(=O)O)CC(F)(F)F)NC(=O)[C@H](CC(=O)O)NC(=O)C2(CCCC=CCCCOC(=O)N3CC[C@@](C(=O)N[C@@H](Cc4ccccc4Cl)C(=O)N[C@@H](Cc4csc5ccccc45)C(=O)N[C@@H](CCC(N)=O)C(N)=O)(C3)NC(=O)[C@H](CC(N)=O)NC(=O)[C@H](Cc3ccccc3)NC1=O)CCCC=CC[C@]1(CCCN1C(C)=O)C(=O)N[C@@H](CC(=O)O)C(=O)N[C@@H](CC(C)(C)C)C(=O)N2 (some centres unmarked)", 7.38),
    ("CC(=O)N1CCC[C@]12CC=CCCCC1(CCCC=CCCCOC(=O)N3CC[C@@](C(=O)N[C@@H](Cc4ccsc4)C(=O)N[C@@H](Cc4csc5ccccc45)C(=O)N[C@@H](CCC(N)=O)C(N)=O)(C3)NC(=O)[C@H](CC(C)C)NC(=O)[C@H](Cc3ccccc3)NC(=O)[C@H](C)NC(=O)[C@H](C)NC(=O)[C@H](CC(N)=O)NC(=O)[C@H](CC(=O)O)NC1=O)NC(=O)[C@H](CC(C)(C)C)NC(=O)[C@H](CC(=O)O)NC2=O (some centres unmarked)", 7.77),
    ("CC(=O)N1CCC[C@]12CC=CCCCC1(CCCC=CCCCOC(=O)N3CC[C@@](C(=O)N[C@@H](Cc4ccsc4)C(=O)N[C@@H](Cc4csc5ccccc45)C(=O)N[C@@H](CCC(N)=O)C(=O)N[C@@H](CCCCNC(=O)C4CCN(C5CCN(C)CC5)CC4)C(N)=O)(C3)NC(=O)[C@H](CC(N)=O)NC(=O)[C@H](Cc3ccccc3)NC(=O)[C@H](C)NC(=O)[C@H](C)NC(=O)[C@H](CC(=O)O)NC(=O)[C@H](CC(=O)O)NC1=O)NC(=O)[C@H](CC(C)(C)C)NC(=O)[C@H](CC(=O)O)NC2=O (some centres unmarked)", 8.05),
    ("CC(=O)N1CCC[C@]12CC=CCCCC1(CCCC=CCCCOC(=O)N3CC[C@@](C(=O)N[C@@H](Cc4ccccc4)C(=O)N[C@@H](Cc4csc5ccccc45)C(=O)N[C@@H](CCC(N)=O)C(N)=O)(C3)NC(=O)[C@H](CC(C)C)NC(=O)[C@H](Cc3ccccc3)NC(=O)[C@H](C)NC(=O)[C@H](C)NC(=O)[C@H](CCC(=O)O)NC(=O)[C@H](CC(=O)O)NC1=O)NC(=O)[C@H](CC(C)(C)C)NC(=O)[C@H](CC(=O)O)NC2=O (some centres unmarked) [I-1073]", 6.39),
    ("CC(=O)N1CCC[C@]12CC=CCCCC1(CCCC=CCCCOC(=O)N3CC[C@@](C(=O)N[C@@H](Cc4ccccc4Cl)C(=O)N[C@@H](Cc4csc5ccccc45)C(=O)N[C@@H](CO)C(N)=O)(C3)NC(=O)[C@H]([C@@H](C)O)NC(=O)[C@H](Cc3ccccc3)NC(=O)[C@H](C)NC(=O)[C@H](C)NC(=O)[C@H](CC(=O)O)NC(=O)[C@H](CC(=O)O)NC1=O)NC(=O)[C@H](Cc1ccc3ccccc3c1)NC(=O)[C@H](CC(=O)O)NC2=O (some centres unmarked)", 7.55),
]
